# Test system: OVCAR-3 ovarian
# ASSAY_INFO: NCI-60 one-dose screen, 48 h (100 = growth as untreated, 0 = no growth, -100 = all killed)
# TEST_CONDITIONS: 10 µM unless noted
About 83,000 compounds went through this panel and 20% of them were active in at least one assay; those are over-represented in the sample as a whole.
# cutoff -30% applies to growth; >= gives MET, < gives NOT MET

[
  {
    "SMILES_REPRESENTATION": "C=CC[n+]1cccc2c3ccccc3ccc21",
    "SYSTEM_NAME": "OVCAR-3 ovarian",
    "ASSIGNED_LABEL": "MET"
  },
  {
    "SMILES_REPRESENTATION": "O=C(N/N=C/c1c[nH]c2ccccc12)Nc1ccccc1Cl",
    "SYSTEM_NAME": "OVCAR-3 ovarian",
    "ASSIGNED_LABEL": "MET"
  },
  {
    "SMILES_REPRESENTATION": "Cn1cc(-c2cc(N)n3nc(-c4c[nH]c5ccccc45)cc3n2)c2cc(Cl)ccc21",
    "SYSTEM_NAME": "OVCAR-3 ovarian",
    "ASSIGNED_LABEL": "NOT MET"
  },
  {
    "SMILES_REPRESENTATION": "O=C1Nc2ccc(F)cc2/C1=C/C(=O)c1cc2ccccc2oc1=O",
    "SYSTEM_NAME": "OVCAR-3 ovarian",
    "ASSIGNED_LABEL": "MET"
  }
]

###

# System: PC-3 prostate
# ASSAY_INFO: NCI-60 one-dose screen, 48 h (100 = growth as untreated, 0 = no growth, -100 = all killed)
# TEST_CONDITIONS: 10 µM unless noted
Compounds without any hit were thinned out: in the full panel of roughly 83,000, 20% have a hit.
I'd appreciate it if you marked entries condition met when growth is lower than 30% and condition not met when it is not.

[
  {
    "MOLECULE": "C=CC[n+]1cccc2c3ccccc3ccc21",
    "ASSIGNED_LABEL": "condition not met"
  },
  {
    "MOLECULE": "CN(C)c1nc(NCCNS(=O)(=O)c2ccc(C3=Nc4c(N)nc(N)nc4NC(c4ccc(Cl)cc4)C3)cc2)nc(N2CCOCC2)n1 (centres undefined)",
    "ASSIGNED_LABEL": "condition met"
  },
  {
    "MOLECULE": "Cc1cc(Cl)ccc1NC(=O)Nc1ccc(-c2ccc3c(c2)NC(=O)/C3=C\\c2ccc[nH]2)cc1",
    "ASSIGNED_LABEL": "condition not met"
  },
  {
    "MOLECULE": "Cn1cc(-c2cc3nc(-c4c[nH]c5ccccc45)cc(N)n3n2)c2ccccc21",
    "ASSIGNED_LABEL": "condition met"
  },
  {
    "MOLECULE": "O=C(NNC(=S)NC(=O)c1ccccc1)c1ccc(OCc2nc3ccc(Cl)cc3[nH]2)cc1",
    "ASSIGNED_LABEL": "condition met"
  },
  {
    "MOLECULE": "CCOc1ccccc1[C@H]1C(C(=O)c2ccc(Cl)cc2)C2(N[C@@H]1c1ccccc1)C(=O)Nc1ccccc12 (some centres undefined)",
    "ASSIGNED_LABEL": "condition met"
  },
  {
    "MOLECULE": "COc1ccc(-c2nc3ccc(-c4nnc(SCc5ccccc5)o4)cc3[nH]2)cc1",
    "ASSIGNED_LABEL": "condition met"
  },
  {
    "MOLECULE": "Cc1[nH]nc2ccc3nc(-c4cn[nH]c4C(F)(F)F)c4c(c3c12)CCCC4",
    "ASSIGNED_LABEL": "condition met"
  },
  {
    "MOLECULE": "COc1cc(-c2ccc3ncnc(N4CCc5ccc(Cl)cc54)c3c2)cnc1Cl",
    "ASSIGNED_LABEL": "condition met"
  }
]

Cited source: PubChem BioAssay (NCI)
